measurement-description: Plasma PK from oral tick and flea efficacy studies of the C1 racemate
Assay type: in vivo, Mongrel dogs
assay-context: mongrel, dog, plasma, po; range over racemate efficacy studies
reported-property: CL/F

# input Consider the compound O=C(CC(F)(F)F)N1CC2(C1)OCc1cc(C3=NSC(c4cc(Cl)c(F)c(Cl)c4)(C(F)(F)F)C3)ccc12 (racemic) [C1 racemate] and give its measured CL/F.
# output 0.5 to 0.733 mL/min/kg

###

measurement-description: Dog PK study of C1 (S) enantiomer, single oral dose, plasma and whole blood by chiral LC-MS/MS
Assay type: in vivo, beagle dogs
assay-context: dog, whole blood; 336 hr; Beagle; oral 10 mg/kg; read-out: Blood Concentration
reported-property: concentration at 336 hr (ng/mL)
Field format: number, assumed ng/mL, no unit text.

# input Consider the compound O=C(CC(F)(F)F)N1CC2(C1)OCc1cc(C3=NS[C@@](c4cc(Cl)c(F)c(Cl)c4)(C(F)(F)F)C3)ccc12 [C1 (S) enantiomer] and give its measured concentration at 336 hr.
# output 100

###

measurement-description: Dog PK study of C1 (S) enantiomer, single oral dose, plasma and whole blood by chiral LC-MS/MS
Format: in vivo, beagle dogs
assay-context: dog, plasma; 120 hr; Beagle; oral 10 mg/kg; read-out: Plasma Concentration
reported-property: concentration at 120 hr (ng/mL)
Field format: number, assumed ng/mL, no unit text.

# input Consider the molecule O=C(CC(F)(F)F)N1CC2(C1)OCc1cc(C3=NS[C@@](c4cc(Cl)c(F)c(Cl)c4)(C(F)(F)F)C3)ccc12 [C1 (S) enantiomer] and give its measured concentration at 120 hr.
# output 393

###

measurement-description: Dog PK study of C1 (S) enantiomer, single oral dose, plasma and whole blood by chiral LC-MS/MS
Assay type: in vivo, beagle dogs
assay-context: dog, whole blood; 600 hr; Beagle; oral 10 mg/kg; read-out: Blood Concentration
reported-property: concentration at 600 hr (ng/mL)
Field format: number, assumed ng/mL, no unit text.

# input Consider the compound O=C(CC(F)(F)F)N1CC2(C1)OCc1cc(C3=NS[C@@](c4cc(Cl)c(F)c(Cl)c4)(C(F)(F)F)C3)ccc12 [C1 (S) enantiomer] and give its measured concentration at 600 hr.
# output 41.2

###

measurement-description: Dog PK study of C1 (S) enantiomer, single oral dose, plasma and whole blood by chiral LC-MS/MS
Assay type: in vivo, beagle dogs
assay-context: dog, plasma; 1 hr; Beagle; oral 10 mg/kg; read-out: Plasma Concentration
reported-property: concentration at 1 hr

# input Consider the compound O=C(CC(F)(F)F)N1CC2(C1)OCc1cc(C3=NS[C@@](c4cc(Cl)c(F)c(Cl)c4)(C(F)(F)F)C3)ccc12 [C1 (S) enantiomer] and give its measured concentration at 1 hr.
# output 1920 ng/mL

###

measurement-description: Plasma PK from oral tick and flea efficacy studies of the C1 racemate
Assay type: in vivo, Mongrel dogs
assay-context: mongrel, dog, plasma, po, 10 mg/kg, plasma; Mongrel; Flea Efficacy study, oral 10 mg/kg; read-out: NCA AUC0-last
reported-property: AUC(0-t) (µg·h/mL)
Field format: number, assumed µg·h/mL, no unit text.

# input Consider the compound O=C(CC(F)(F)F)N1CC2(C1)OCc1cc(C3=NSC(c4cc(Cl)c(F)c(Cl)c4)(C(F)(F)F)C3)ccc12 (racemic) [C1 racemate] and give its measured AUC(0-t).
# output 266

###

measurement-description: Dog PK study of C1 (S) enantiomer, single oral dose, plasma and whole blood by chiral LC-MS/MS
Assay type: in vivo, beagle dogs
assay-context: dog, plasma; 72 hr; Beagle; oral 10 mg/kg; read-out: Plasma Concentration
reported-property: concentration at 72 hr (ng/mL)
Field format: number, assumed ng/mL, no unit text.

# input Consider the compound O=C(CC(F)(F)F)N1CC2(C1)OCc1cc(C3=NS[C@@](c4cc(Cl)c(F)c(Cl)c4)(C(F)(F)F)C3)ccc12 [C1 (S) enantiomer] and give its measured concentration at 72 hr.
# output 552

###

measurement-description: Dog PK study of C1 (S) enantiomer, single oral dose, plasma and whole blood by chiral LC-MS/MS
Type: in vivo, beagle dogs
assay-context: dog, plasma; 336 hr; Beagle; oral 10 mg/kg; read-out: Plasma Concentration
reported-property: concentration at 336 hr
Could you write the number and then its unit?

# input Consider the compound O=C(CC(F)(F)F)N1CC2(C1)OCc1cc(C3=NS[C@@](c4cc(Cl)c(F)c(Cl)c4)(C(F)(F)F)C3)ccc12 [C1 (S) enantiomer] and give its measured concentration at 336 hr.
# output 219 ng/mL

###

measurement-description: Dog PK study of C1 (S) enantiomer, single oral dose, plasma and whole blood by chiral LC-MS/MS
Format: in vivo, beagle dogs
assay-context: dog, plasma; 600 hr; Beagle; oral 10 mg/kg; read-out: Plasma Concentration
reported-property: concentration at 600 hr (ng/mL)
Field format: number, assumed ng/mL, no unit text.

# input Consider the molecule O=C(CC(F)(F)F)N1CC2(C1)OCc1cc(C3=NS[C@@](c4cc(Cl)c(F)c(Cl)c4)(C(F)(F)F)C3)ccc12 [C1 (S) enantiomer] and give its measured concentration at 600 hr.
# output 80.4

###

measurement-description: Dog PK study of C1 (S) enantiomer, single oral dose, plasma and whole blood by chiral LC-MS/MS
Assay type: in vivo, beagle dogs
assay-context: dog, whole blood; 8 hr; Beagle; oral 10 mg/kg; read-out: Blood Concentration
reported-property: concentration at 8 hr (ng/mL)
Field format: number, assumed ng/mL, no unit text.

# input Consider the compound O=C(CC(F)(F)F)N1CC2(C1)OCc1cc(C3=NS[C@@](c4cc(Cl)c(F)c(Cl)c4)(C(F)(F)F)C3)ccc12 [C1 (S) enantiomer] and give its measured concentration at 8 hr.
# output 1220

###

measurement-description: Plasma PK from oral tick and flea efficacy studies of the C1 racemate
Type: in vivo, Mongrel dogs
assay-context: mongrel, dog, plasma, po, plasma; range over racemate efficacy studies; read-out: half-life
reported-property: half-life

# input Consider the compound O=C(CC(F)(F)F)N1CC2(C1)OCc1cc(C3=NSC(c4cc(Cl)c(F)c(Cl)c4)(C(F)(F)F)C3)ccc12 (racemic) [C1 racemate] and give its measured half-life.
# output 14.9 to 23.8 days

###

measurement-description: Plasma PK from oral tick and flea efficacy studies of the C1 racemate
Type: in vivo, Mongrel dogs
assay-context: mongrel, dog, plasma, po, 10 mg/kg, plasma; Mongrel; Tick Efficacy study, oral 10 mg/kg; read-out: NCA AUC0-last
reported-property: AUC(0-t) (µg·h/mL)
Field format: number, assumed µg·h/mL, no unit text.

# input Consider the compound O=C(CC(F)(F)F)N1CC2(C1)OCc1cc(C3=NSC(c4cc(Cl)c(F)c(Cl)c4)(C(F)(F)F)C3)ccc12 (racemic) [C1 racemate] and give its measured AUC(0-t).
# output 344

###

measurement-description: Dog PK study of C1 (S) enantiomer, single oral dose, plasma and whole blood by chiral LC-MS/MS
Assay type: in vivo, beagle dogs
assay-context: dog, whole blood; 2 hr; Beagle; oral 10 mg/kg; read-out: Blood Concentration
reported-property: concentration at 2 hr (µg/mL)
Field format: number, assumed µg/mL, no unit text.

# input Consider the compound O=C(CC(F)(F)F)N1CC2(C1)OCc1cc(C3=NS[C@@](c4cc(Cl)c(F)c(Cl)c4)(C(F)(F)F)C3)ccc12 [C1 (S) enantiomer] and give its measured concentration at 2 hr.
# output 3.56

###

measurement-description: Dog PK study of C1 (S) enantiomer, single oral dose, plasma and whole blood by chiral LC-MS/MS
Assay type: in vivo, beagle dogs
assay-context: dog, whole blood; 936 hr; Beagle; oral 10 mg/kg; read-out: Blood Concentration
reported-property: concentration at 936 hr (ng/mL)
Field format: number, assumed ng/mL, no unit text.

# input Consider the compound O=C(CC(F)(F)F)N1CC2(C1)OCc1cc(C3=NS[C@@](c4cc(Cl)c(F)c(Cl)c4)(C(F)(F)F)C3)ccc12 [C1 (S) enantiomer] and give its measured concentration at 936 hr.
# output 14.3

###

measurement-description: Plasma PK from oral tick and flea efficacy studies of the C1 racemate
Type: in vivo, Mongrel dogs
assay-context: mongrel, dog, plasma, po, 10 mg/kg, plasma; Mongrel; Flea Efficacy study, oral 10 mg/kg; read-out: Cmax
reported-property: Cmax (µg/mL)
Field format: number, assumed µg/mL, no unit text.

# input Consider the compound O=C(CC(F)(F)F)N1CC2(C1)OCc1cc(C3=NSC(c4cc(Cl)c(F)c(Cl)c4)(C(F)(F)F)C3)ccc12 (racemic) [C1 racemate] and give its measured Cmax.
# output 3.47

###

measurement-description: Dog PK study of C1 (S) enantiomer, single oral dose, plasma and whole blood by chiral LC-MS/MS
Assay type: in vivo, beagle dogs
assay-context: dog, plasma; 24 hr; Beagle; oral 10 mg/kg; read-out: Plasma Concentration
reported-property: concentration at 24 hr (ng/mL)
Field format: number, assumed ng/mL, no unit text.

# input Consider the compound O=C(CC(F)(F)F)N1CC2(C1)OCc1cc(C3=NS[C@@](c4cc(Cl)c(F)c(Cl)c4)(C(F)(F)F)C3)ccc12 [C1 (S) enantiomer] and give its measured concentration at 24 hr.
# output 664
